Cited source for all entries: ChEMBL document CHEMBL4513216

Experiment: Toxicity liver stage against HepG2, at 10uM
Format: cell-based
Set-up: test concentration 10 uM, cell line HepG2-A16-CD81EGFP
Conditions: human, HepG2-A16-CD81EGFP cells; read-out: INHIBITION
measurementKind: cytotoxicity at 10 µM (%)
Answer in %, number only, no unit symbol.

Worked set:
O=C(c1ccc(O)cc1)N1C[C@@H]2OCCN(c3ncccn3)[C@@H]2C1; 6.72
CCN(Cc1cccc2c1OCCO2)C(=O)NC(C)(C)C; -20.9
CN(c1ccncn1)C1CC2(CCN(C(=O)Cc3cccs3)C2)C1 (stereo unspecified); -5.97
CN(C)CCO[C@@H]1CC[C@H]2[C@H]1OCCN2C(=O)CCc1ccccc1; -6.69
CCCn1ccnc1SCC(=O)NC(Cc1ccccc1)C(C)=O (stereo unspecified); -9.58

// sample CCC(OC)C(=O)N1CCC2(CC1)c1nc[nH]c1CCN2S(C)(=O)=O (stereo unspecified) , its cytotoxicity at 10 µM was -6.6

Briefly, cytotoxicity at 10 µM measured for O=C(C1CCCC1)N1CC2(CCN(C3COC3)C2)OCc2ccccc21 (stereo unspecified) : 4.92

Please fill in: cytotoxicity at 10 µM reported for CCc1nccn1-c1nccnc1C1CCCN(C(=O)COC)C1 (stereo unspecified) = -21.5

In plain terms, `CCCN1CCC(CC(=O)NCc2cc(O)ncn2)CC1` has a documented cytotoxicity at 10 µM of 14.7

Value of cytotoxicity at 10 µM reported for the molecule `CCc1cn[nH]c1C1CCN(C(=O)c2cc(C(C)=O)c(C)[nH]c2=O)CC1` is -2.23

Input CC1(COc2ccccc2)NCCc2[nH]cnc21 (stereo unspecified) . Output cytotoxicity at 10 µM: -0.254

// `Cc1ncc(CN2CCc3c(nc4cc(C5CC5)nn4c3O)C2)n1C` : cytotoxicity at 10 µM value = 6.62

For this molecule ( `CCN1CCc2onc(CNc3ncccn3)c2C1` ), measured cytotoxicity at 10 µM is 0.927

Reported cytotoxicity at 10 µM of `CNC(=O)c1cc2c(nc1NC(C)C)CCN(C(=O)NC(C)C)CC2` : -0.0714

Short answer for O=C(CCn1cccn1)NCC(c1cccs1)N1CCOCC1 (stereo unspecified) : cytotoxicity at 10 µM was -2.49

GET /value?item= `O=C(NCc1ccc(CN2CCCC2)cc1)NC1(CO)CCCC1` &field=cytotoxicity at 10 µM returns -63.4

So, O=C1CC2(CCN(S(=O)(=O)c3cccs3)C2)CN1c1ccccc1 (stereo unspecified) ? Its cytotoxicity at 10 µM was 5.08

Noted for `CN(Cc1ccco1)C[C@H]1OC[C@@H]2CCN(Cc3ccncc3)C[C@@H]21` : its cytotoxicity at 10 µM reads -1.62

Consider `CCCS(=O)(=O)N1CCc2onc(CNc3ncccn3)c2C1` . Its measured cytotoxicity at 10 µM is -2.25

The molecule identified as `CN(C)c1cc(CNc2cncc(-n3cccn3)n2)ccn1` registered its cytotoxicity at 10 µM at 6.26
